- test-details: activity coefficient (dimensionless); of the first substance listed, at infinite dilution; xn = mol fraction of the nth substance listed
- measurement-parameters: 328.15 K; Liquid; Chromatography; x1 = 0
measured-quantity: activity coefficient
Keep it simple and answer with nothing but the number.

Worked cases, activity coefficient given:
                                   compound  recorded_result
0  c1ccncc1 [pyridine] + CCCCn1cc[n+](C)c1.N#CN=C=[N-]             0.89
1  CCCCCC [hexane] + CCCCn1cc[n+](C)c1.N#CN=C=[N-]             59.3
2  CCc1ccccc1 [ethylbenzene] + CCCCn1cc[n+](C)c1.N#CN=C=[N-]             4.89
3  CCCCO [butan-1-ol] + CCCCn1cc[n+](C)c1.N#CN=C=[N-]             1.11
4  CCC(C)(C)C [2,2-dimethylbutane] + CCCCn1cc[n+](C)c1.N#CN=C=[N-]             51.7

query: Dear colleague, I am looking for the recorded activity coefficient of the following compound: C1CCCC1 [cyclopentane] + CCCCn1cc[n+](C)c1.N#CN=C=[N-]
result: 16.9

query: Dear colleague, I am looking for the recorded activity coefficient of the following compound: C=Cc1ccccc1 [styrene] + CCCCn1cc[n+](C)c1.N#CN=C=[N-]
result: 2.28

query: Dear colleague, I am looking for the recorded activity coefficient of the following compound: CC(C)(C)O [2-methylpropan-2-ol] + CCCCn1cc[n+](C)c1.N#CN=C=[N-]
result: 1.14

query: Dear colleague, I am looking for the recorded activity coefficient of the following compound: CCCO [propan-1-ol] + CCCCn1cc[n+](C)c1.N#CN=C=[N-]
result: 0.835

query: Dear colleague, I am looking for the recorded activity coefficient of the following compound: COC(C)(C)C [2-methoxy-2-methylpropane] + CCCCn1cc[n+](C)c1.N#CN=C=[N-]
result: 7.47

query: Dear colleague, I am looking for the recorded activity coefficient of the following compound: C1CCCCCCC1 [cyclooctane] + CCCCn1cc[n+](C)c1.N#CN=C=[N-]
result: 40.4

query: Dear colleague, I am looking for the recorded activity coefficient of the following compound: CCCc1ccccc1 [propylbenzene] + CCCCn1cc[n+](C)c1.N#CN=C=[N-]
result: 7.57

query: Dear colleague, I am looking for the recorded activity coefficient of the following compound: C#CCCCC [1-hexyne] + CCCCn1cc[n+](C)c1.N#CN=C=[N-]
result: 5.76

* * *

- test-details: activity coefficient (dimensionless); of the first substance listed, at infinite dilution; xn = mol fraction of the nth substance listed
- measurement-parameters: 348.15 K; Liquid; Chromatography; x1 = 0
Decision: activity coefficient >= 1 yields y, all other cases yield n.

Use the examples below as a reference point.
                                   compound  label_value
0  O [water] + CCCCn1cc[n+](C)c1.N#CN=C=[N-]            n
1  c1ccsc1 [thiophene] + CCCCn1cc[n+](C)c1.N#CN=C=[N-]            y
2  CC(C)=O [acetone] + CCCCn1cc[n+](C)c1.N#CN=C=[N-]            y

query: Please tell me: is the compound CC(C)OC(C)C [diisopropyl ether] + CCCCn1cc[n+](C)c1.N#CN=C=[N-] at or over 1 in terms of activity coefficient?
result: y

query: Please tell me: is the compound CCC(C)(C)C [2,2-dimethylbutane] + CCCCn1cc[n+](C)c1.N#CN=C=[N-] at or over 1 in terms of activity coefficient?
result: y

All values here come from the NIST ThermoML archive (doi:10.1016/j.fluid.2016.02.004).
